Target: HRgpA-6H (Porphyromonas gingivalis) (UniProt P28784)
Experiment: ELISA, FASEBA Fab on coated HRgpA-6H
Measured Ratio OD(Variant)/OD(WT), listed per entry.
Respond numerically, and do not add a unit to the figure.

KB001 mouse Fab VL T24K/R18S (Fab, V domains shown) VH: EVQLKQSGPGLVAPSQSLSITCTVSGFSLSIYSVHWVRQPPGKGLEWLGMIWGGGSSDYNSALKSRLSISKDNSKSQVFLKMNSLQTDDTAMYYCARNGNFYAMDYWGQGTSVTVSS VL: QIVLTQSPAIMSASLGESVTMTCKASSSVSSSFLHWYQQKPGSSPQLWIYSTSNLASGVPARFSGSGSGTSYSLTISSMEAEDAATYYCHQYHHSPYIYTFGGGTKLEIK
0.99

Could you now consider this next binder?
Return reported Ratio OD(Variant)/OD(WT); argument: KB001 mouse Fab VL S57N (Fab, V domains shown) VH: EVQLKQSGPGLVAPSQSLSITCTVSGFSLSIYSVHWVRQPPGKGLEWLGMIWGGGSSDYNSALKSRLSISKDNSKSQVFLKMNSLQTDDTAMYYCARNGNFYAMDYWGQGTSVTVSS VL: QIVLTQSPAIMSASLGERVTMTCTASSSVSSSFLHWYQQKPGSSPQLWIYSTSNLANGVPARFSGSGSGTSYSLTISSMEAEDAATYYCHQYHHSPYIYTFGGGTKLEIK 1.05
